Listed next: entries and their corresponding T/C.
System: L1210 leukemia ip in BDF1 mice, survival T/C
Assay: NCI In Vivo Anticancer Drug Screen. Data for tumor model L1210 Leukemia (intraperitoneal) in B6D2F1 (BDF1) mice
Conditions: endpoint: mean survival time; dose: 25.0 mg/kg/injection; schedule: Q01DX009 (ip); vehicle: saline; higher = longer survival
Method: The antitumor activity of compounds was measured in mice bearing transplantable tumors. Survival or tumor size were measured and the results are expressed as the measurement made in the treated group (T) divided by the measurement made in the vehicle treated control group (C). The tumor model used in this assay is L1210 Leukemia (intraperitoneal) in B6D2F1 (BDF1) mice
Inconclusive results and toxic doses are left out.
READOUT NAME: T/C

>>> measured_value("CC1C[N+](C)=C2CCCCC2=C1N (stereo not drawn)")
"102 % of control"
>>> measured_value("CC(=O)NCC1(c2ccccc2)CCN(CCCC(=O)c2ccc(F)cc2)CC1")
"96 % of control"
>>> measured_value("CC(C)=NN=C(C)C")
"100 % of control"
